Assay: self-splicing fitness, log relative to wild type (ln ratio); higher = more splicing; Tetrahymena group I intron in knt gene, E. coli kanamycin selection, DiMSum; sequences stand for … in CUCUCU…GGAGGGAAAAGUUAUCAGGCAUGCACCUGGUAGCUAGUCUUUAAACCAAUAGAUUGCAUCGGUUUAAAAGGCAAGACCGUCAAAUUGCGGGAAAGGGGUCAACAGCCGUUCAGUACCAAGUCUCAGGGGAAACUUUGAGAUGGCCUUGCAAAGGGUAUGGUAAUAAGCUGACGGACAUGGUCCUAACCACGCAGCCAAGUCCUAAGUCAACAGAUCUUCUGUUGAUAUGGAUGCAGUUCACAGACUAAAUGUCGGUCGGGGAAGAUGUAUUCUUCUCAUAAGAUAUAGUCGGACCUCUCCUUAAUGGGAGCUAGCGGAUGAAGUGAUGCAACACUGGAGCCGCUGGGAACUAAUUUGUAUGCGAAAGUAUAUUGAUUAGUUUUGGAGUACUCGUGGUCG;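 further: selection with 25 µg/mL kanamycin versus none on LB agar overnight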
Conditions: 37 °C
QUANTITY_MEASURED: self-splicing fitness (ln)

Study these solved cases before continuing.
GGUCAGCAAUAUUACGCGUG ... -0.272
ACAGAGCAAUAUUACGACUC ... -2.47

Please find the next sequence below.
Prompt: Supply measured self-splicing fitness (ln) of `CCCUAGCAAUAUUACGGAUG` in your reply.
Completion: -1.53
